Biological target: Recombinant human TREM2 (Homo sapiens, UniProt Q9NZC2)
Sequence (Q9NZC2 19-174 limits assumed): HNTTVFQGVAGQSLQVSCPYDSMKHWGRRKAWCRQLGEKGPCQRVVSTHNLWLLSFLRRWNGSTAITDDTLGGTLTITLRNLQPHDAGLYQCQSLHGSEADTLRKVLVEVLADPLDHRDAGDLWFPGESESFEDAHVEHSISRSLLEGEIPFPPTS
Assay: microscale thermophoresis
observable: pKd
Would you please state pKd, meaning minus log10 of the concentration in mol/L, as a bare number?

Ask: Lab request: please report pKd under test system Recombinant human TREM2 (Homo sapiens, UniProt Q9NZC2) for Cc1nc2cc(C3=CC(c4cnn(C)c4)OCC3)nc(-c3ccc(Cl)cc3F)c2nc1C (stereo not shown) [C1]
Result: 4.15

---

In this section, each of the molecules is paired with its reported pIC50.
Biological target: hERG (Homo sapiens, UniProt Q12809, species not given)
Sequence (Q12809 whole entry): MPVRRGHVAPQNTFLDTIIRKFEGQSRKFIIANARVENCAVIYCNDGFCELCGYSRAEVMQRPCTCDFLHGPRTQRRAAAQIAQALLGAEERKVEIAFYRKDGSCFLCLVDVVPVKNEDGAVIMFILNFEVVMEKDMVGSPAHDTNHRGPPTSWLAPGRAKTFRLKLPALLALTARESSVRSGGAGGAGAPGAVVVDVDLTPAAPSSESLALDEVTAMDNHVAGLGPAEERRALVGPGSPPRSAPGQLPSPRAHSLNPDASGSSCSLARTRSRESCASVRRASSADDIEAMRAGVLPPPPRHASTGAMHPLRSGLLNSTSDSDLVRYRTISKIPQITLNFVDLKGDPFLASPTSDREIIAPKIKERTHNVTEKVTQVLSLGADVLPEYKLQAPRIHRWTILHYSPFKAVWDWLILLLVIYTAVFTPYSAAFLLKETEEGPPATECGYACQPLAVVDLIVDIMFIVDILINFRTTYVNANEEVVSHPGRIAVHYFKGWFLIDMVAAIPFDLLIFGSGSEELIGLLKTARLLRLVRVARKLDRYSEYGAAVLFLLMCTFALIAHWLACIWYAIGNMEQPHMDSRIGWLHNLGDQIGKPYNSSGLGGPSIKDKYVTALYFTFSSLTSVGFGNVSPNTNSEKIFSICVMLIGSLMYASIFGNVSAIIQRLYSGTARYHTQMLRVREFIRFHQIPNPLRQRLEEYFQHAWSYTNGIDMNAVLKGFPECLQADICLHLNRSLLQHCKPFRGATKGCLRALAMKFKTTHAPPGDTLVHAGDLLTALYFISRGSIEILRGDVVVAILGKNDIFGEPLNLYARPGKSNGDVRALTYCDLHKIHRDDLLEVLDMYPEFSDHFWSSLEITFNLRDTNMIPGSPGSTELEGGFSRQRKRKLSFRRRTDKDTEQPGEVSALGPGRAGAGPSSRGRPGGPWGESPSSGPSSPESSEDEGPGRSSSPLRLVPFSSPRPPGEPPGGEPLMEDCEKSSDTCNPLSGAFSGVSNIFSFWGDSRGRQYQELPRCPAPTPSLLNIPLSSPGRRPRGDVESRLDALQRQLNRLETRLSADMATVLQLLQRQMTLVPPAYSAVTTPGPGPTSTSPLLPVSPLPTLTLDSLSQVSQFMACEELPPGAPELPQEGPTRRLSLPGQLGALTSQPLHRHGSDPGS
Assay: hERG inhibition
Assay type: cell-based
pIC50: −log10 of the molar value.

> print(dat)
                                   molecule  result.value
1  Cc1nc2cc(C3=CC(c4cnn(C)c4)OCC3)nc(-c3ccc(Cl)cc3F)c2nc1C (centres unmarked) [C1]        < 4.00

Let us move to another entry and its pIC50.
Ask: Lab request: please report pIC50 under test system hERG (Homo sapiens, UniProt Q12809, species not given) for Cc1nc2cc([C@H]3CCO[C@@H](c4cnn(C)c4)C3)nc(-c3ccc(Cl)cc3F)c2nc1C [VG-3927]
Result: < 4.00
